TGT: TAFI purifié (Homo sapiens, UniProt Q96IY4)
Sequence (Q96IY4 115-423): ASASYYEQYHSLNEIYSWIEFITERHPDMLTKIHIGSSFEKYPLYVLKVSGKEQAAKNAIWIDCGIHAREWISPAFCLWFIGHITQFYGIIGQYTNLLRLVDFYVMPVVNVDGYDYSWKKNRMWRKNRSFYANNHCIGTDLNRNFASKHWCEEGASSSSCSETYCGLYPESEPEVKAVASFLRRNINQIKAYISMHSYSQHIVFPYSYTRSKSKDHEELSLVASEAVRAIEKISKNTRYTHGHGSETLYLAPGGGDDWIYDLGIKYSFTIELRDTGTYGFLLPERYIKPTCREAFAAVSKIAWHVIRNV
TEST SUMMARY: Colorimetric TAFI activity assay on purified TAFI with different substrates (thrombin/thrombomodulin activation, carboxypeptidase A revelation)
Type: biochemical
RECORDED CONDITIONS: substrate 5 mM; 6,5 µg/ml TAFI purifié in hépès buffer; read at 320-350 nm
ASSAY METRIC: DO de départ
One number for each entry.

Some solved entries appear below for comparison.
Cc1ccc(C)c(N=NC(=O)N[C@@H](Cc2ccccc2)C(=O)N[C@@H](CCCNC(=N)N)C(=O)O)c1 [2,5 DMPAFFR] | 0.973
COc1ccc(N=NC(=O)N[C@@H](Cc2ccccc2)C(=O)N[C@@H](CCCCN)C(=O)O)cc1 [MxPAFFK] | 0.973
Cc1cccc(N=NC(=O)N[C@@H](Cc2ccccc2)C(=O)N[C@@H](CCCNC(=N)N)C(=O)O)c1C [2,3 DMPAFFR] | 0.318

Next compound, DO de départ to be filled in.
Record Cc1ccc(N=NC(=O)N[C@@H](Cc2ccccc2)C(=O)N[C@@H](CCCNC(=N)N)C(=O)O)c(C)c1 [2,4 DMPAFFR] : what is its DO de départ with TAFI purifié (Homo sapiens, UniProt Q96IY4)? 1.004
